Reference source for all entries: ChEMBL document CHEMBL6092158

Test system: R28
Test: Cytoprotective activity against glutamate-induced cytotoxicity in rat R28 cells assessed as increase in cell viability at 10 uM incubated for 24 hrs in presence of glutamate by MTT assay
Assay type: functional, cell-based
Calls of active or inactive are those of the source. The rule behind the calls is not given here.
The reply should be one of these categories: active, inactive

Task: What did the test return for COc1ccc(C(=O)[C@@H]2[C@@H](c3ccc(O)c(O)c3)CN(C)[C@@]23C(=O)Nc2ccccc23)cc1 ?
Result: active

Task: Also need CN1C[C@H](c2ccc(O)c(O)c2)[C@@H](C(=O)c2cccc(O)c2)[C@]12C(=O)Nc1ccccc12 , thanks.
Result: active

Task: What do you get for CN1C[C@H](c2ccc(O)c(O)c2)[C@@H](C(=O)c2ccc([N+](=O)[O-])cc2)[C@]12C(=O)Nc1ccccc12 ?
Result: inactive

Task: Now consider CN1C[C@H](c2ccc(O)c(O)c2)[C@@H](C(=O)c2ccccc2C(F)(F)F)[C@]12C(=O)Nc1ccccc12 .
Result: inactive

Task: Same read-out for CN1C[C@H](c2ccc(O)c(O)c2)[C@@H](C(=O)c2cc(C(F)(F)F)cc(C(F)(F)F)c2)[C@]12C(=O)Nc1ccccc12 ?
Result: inactive

Task: One more molecule: COc1ccc(C(=O)[C@@H]2[C@@H](c3ccc(O)c(O)c3)CN(C)[C@@]23C(=O)Nc2ccccc23)cc1OC
Result: active

Task: Another molecule to check: CN1C[C@H](c2ccc(O)c(O)c2)[C@@H](C(=O)c2ccc(O)cc2)[C@]12C(=O)Nc1ccccc12
Result: active

Task: Would you kindly repeat that for CN1C[C@H](c2ccc(O)c(O)c2)[C@@H](C(=O)c2ccc(F)cc2)[C@]12C(=O)Nc1ccccc12 ?
Result: active
